A collection of sequences and their measured apparent KD of MS2 coat protein
# Test system: MS2 coat protein
# test summary: apparent KD of MS2 coat protein, switch ON state; designed switch direction (-1 OFF switch, 1 ON switch): -1; higher = weaker reporter binding
# condition info: FMN input: 0 or 200 uM; Eterna round: R93 (includes R88 designs)
Quick reminder: number only, in nM, skip the unit.

Worked examples follow.
apparent KD of MS2 coat protein lookup needed for AAGAAGUCAGGAUAUCCAAAAGAAAAGAAAAGAAAAGAAAAGGAGAAGGGACAUGAGGAUCACCCAUGUAAGAA [Khnemibre Ahmose II] , thanks. 71.3

Please report the recorded apparent KD of MS2 coat protein for GAAAAACAUGAGGAUCACCCAUGUCAGGAUAUGCAGAAAAAGAAAAAAAGAAAAGAAAGUAGAAGGGACAAAAG [Mat - Same state - Mayanna Mod - D106] . 29.4

Please give the measured apparent KD of MS2 coat protein for this sequence: AGGGUACAUGAGGAUCACCCAUGUUAGGAUAUAGAAAAGAAAAGAAAAGAAAGAAGAACUAGAAGGGACAAGAA [Unas] 34.8

***
Query: apparent KD of MS2 coat protein; subject: AAGAUGUCAGGAUAUACAUAAAUAAAAAAUUAUGUUAAAACACAUGAGGAUCACCCAUGUAGAAGGGACAUCAA [AJ 7] 17.2

What does the data say about its apparent KD of MS2 coat protein? Entry: AAAAAUGGAGGAUAUACAUGAGGAUCACCCAUGUGUAACUAAACAAAACACAAAAAAAGUAGAAGGCCAAAAAA [Gilly Gone Silly 6 - Jieux - Exclusion 3] 14.5

What value of apparent KD of MS2 coat protein has been reported for the following sequence? CUCAUGUCAGGAUAUCAGUAGUAAAAAAAAAAAAUUACUACUGAGAAGGGACAUGAGGAUCACCCAUGUCCCAA [EX4 305: Super Stable 5] 30.7

What value of measured apparent KD of MS2 coat protein is listed for GGUUGGCGAGGAUAUACAUGAGGAUCACCCAUGUGAGAGAAAAAAGUGAGGAGGAGAAGUAGAAGGCGCUGACG [salish99-ex3-17] ? 18.9

Tell me the measured apparent KD of MS2 coat protein of CAAAGGUGAGGAUAUGCAUAACUAUGACGAAAGUCAUAAACACAUGAGGAUCACCCAUGUAGAAGGCGCCACAA [e2-3] , please. 78.8

Quick one: apparent KD of MS2 coat protein of AAAAAACAUGAGGAUCACCCAUGUGAGGAUAUGCAGCGAAUAAAGAAAGAAGAAAGCAGCAGAAGGCACACCAA [Amethyst 78] ? 26.4

Given the sequence AAGGGACAUGAGGAUCACCCAUGUCAGGAUAUGCUAUGGAAAAUAAAAAUAAAACAUAGCAGAAGGGACAAAAA [Denovo 4] , what is its reported apparent KD of MS2 coat protein? 38.5

Name the reported apparent KD of MS2 coat protein value associated with the sequence AGCUAGUCAGGAUAUGCAUGAAUGUCAAAAGACGUAAAGGGACAUGAGGAUCACCCAUGUAGAAGGGACUAGCA [JL In the Red 4?] 120

Any idea what apparent KD of MS2 coat protein was measured for AAAAAACAUGAGGAUCACCCAUGUCAGGAUAUCGAAAAAUAAAUAAAAAUAAAAUAAACGAGAAGGGACAAAAA [May 11] ? 39.8

Recorded apparent KD of MS2 coat protein of GCUCAGUAAGGAUAUUAAUGGCGCUGUUAUUCAGCACCAGCUGAGAAGGUACAUGAGGAUCACCCAUGUGGUGA [Berion] , please. 240

Query: apparent KD of MS2 coat protein; subject: AACUAGUGAGGAUAUACAAGAAAACAAACAAAAAUGAAGGGACAUGAGGAUCACCCAUGUAGAAGGCACUAACA [Diamond 70] 48.2

Quick check: apparent KD of MS2 coat protein of AAAACGGCAGGAUAUACAGAAGAGAUCACGAAAAAAAAAAAACAUGAGGAUCACCCAUGUAGAAGGGCCAAAAA [Ex2 Malc#4] ? 117

Which apparent KD of MS2 coat protein value belongs to AAGGAGUAAGGAUAUCGGAAAGGACACGAAAGUGACAAAGACGAGAAGGUACAUGAGGAUCACCCAUGUAAAAA [milkweed 23] ? 24.9

Would you mind telling me what apparent KD of MS2 coat protein value was observed for AAAAAAAGAGGAUAUACGUACAUGUCAAAAGACGUGAAGGGACAUGAGGAUCACCCAUGUAGAAGGUUUAAAAA [JL Wide Open 30] ? 35.5

Returns the measured apparent KD of MS2 coat protein for the input sequence. Input: AAACAACAUGAGGAUCACCCAUGUUAGGAUAUGAACGAAAAUAAAUAAAAAUAAAAGUUCAGAAGGGACAAAAA [66%, Wbt, 20] 23

# get_value(readout='apparent KD of MS2 coat protein', item= AGUUGGCGAGGAUAUACAUGAGGAUCACCCAUGUGAGAGUAAAAAGUGAGAAAGAAAAGUAGAAGGCGCUCACA [JL Lego Mod 14] ) 77.5

Reported apparent KD of MS2 coat protein, sequence AAGAAACAUGAGGAUCACCCAUGUGAGGAUAUGGAAAAGAAAAGAAAAGAAAGAAGAAUCAGAAGGCACAAAGG [Meryhathor] : ____ 46.4

Can you share its apparent KD of MS2 coat protein? I mean this sequence: CAAAGGUGAGGAUAUACAAGGAUAUGACGAAAGUCAUAAAAACAUGAGGAUCACCCAUGUAGAAGGCACCACAA [E2 64% 4] 33.9

// returns reported apparent KD of MS2 coat protein for input AAGAACUGAGGAUAUACAUGAGGAUCACCCAUGUAAAAGAAAGAAAAGGGAAAGAAAAGUAGAAGGCAGAAGAA [Nebmaatre Amenhotep III] 36.9

Tell me the measured apparent KD of MS2 coat protein of AGGAAACAUGAGGAUCACCCAUGUUAGGAUAUGAACGAAAUAAAAUAAAAAUAAAAGUUCAGAAGGAACAAAAA [Mat - Exclusion 1 - Eli mod - D19] , please. 28.2

Could you tell me which apparent KD of MS2 coat protein is on file for AGUGAGUGAGGAUAUCCCUGAAGAAUAAAAGAAAUAACGAGGGAGAAGGCACAUGAGGAUCACCCAUGUACACA [May 64] ? 30.6

Need apparent KD of MS2 coat protein of AAAAUGUUAGGAUAUGUGAAGGCGUCUGAUAGACGAGGCCUGCAGAAGGGACAUGAGGAUCACCCAUGUAAAAA [Mod 1 of Nando's Round 1 Power Srip] , thanks. 53.9

Query (sequence): AACAUGUGAGGAUAUAAAAGAAAAGAAAAGAAAGAAAAGAAUUAGAAGGCACAUGAGGAUCACCCAUGUAAGAA [EteRNA is fun!] ; field requested: apparent KD of MS2 coat protein 28.2

Values were extracted from the supplement of paper PMC9170038.
